# Test system: ATP;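 also: ATP exposure 15 min at 22 °C before imaging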
# test name: switch fluorescence ratio, 500 uM ATP over buffer (Cy3 cluster intensity, sum of 5 cycles each) (fold (ratio)); higher = stronger signal-on switching upon ATP binding; sequences stand for … in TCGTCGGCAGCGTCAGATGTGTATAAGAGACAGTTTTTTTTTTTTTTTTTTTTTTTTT…TC
# condition details: aptamer strand: ATP DNA aptamer (quencher-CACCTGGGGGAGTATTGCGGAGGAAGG + anchor), 100 nM annealed; ATP concentration: 500 uM
property: switch fluorescence ratio

{"columns": ["query sequence", "switch fluorescence ratio"],
 "data": [
  ["GGTGTGAGTA", 1.01],
  ["GACATAGGGT", 0.994],
  ["CGCCCGGTAA", 1.13],
  ["GACGGGTCTC", 1],
  ["ATTCTTTGGC", 1.04]
]}

Answer for every listed entry: what is its switch fluorescence ratio? The entries follow.
1. CTGGGTTGGG
2. AGATCGTGAA
3. AGGTCAGGTT
4. AGTTGAAGGG
5. GACAGGGGGG
6. TGTGACGGGA

Response:
1: 1.01; 2: 1; 3: 1.01; 4: 0.973; 5: 1.01; 6: 1.09
